Source listed as ChEMBL document CHEMBL4196195.

Target: FAAH (fatty-acid amide hydrolase 1) (Rattus norvegicus, UniProt P97612)
Sequence (P97612 whole entry): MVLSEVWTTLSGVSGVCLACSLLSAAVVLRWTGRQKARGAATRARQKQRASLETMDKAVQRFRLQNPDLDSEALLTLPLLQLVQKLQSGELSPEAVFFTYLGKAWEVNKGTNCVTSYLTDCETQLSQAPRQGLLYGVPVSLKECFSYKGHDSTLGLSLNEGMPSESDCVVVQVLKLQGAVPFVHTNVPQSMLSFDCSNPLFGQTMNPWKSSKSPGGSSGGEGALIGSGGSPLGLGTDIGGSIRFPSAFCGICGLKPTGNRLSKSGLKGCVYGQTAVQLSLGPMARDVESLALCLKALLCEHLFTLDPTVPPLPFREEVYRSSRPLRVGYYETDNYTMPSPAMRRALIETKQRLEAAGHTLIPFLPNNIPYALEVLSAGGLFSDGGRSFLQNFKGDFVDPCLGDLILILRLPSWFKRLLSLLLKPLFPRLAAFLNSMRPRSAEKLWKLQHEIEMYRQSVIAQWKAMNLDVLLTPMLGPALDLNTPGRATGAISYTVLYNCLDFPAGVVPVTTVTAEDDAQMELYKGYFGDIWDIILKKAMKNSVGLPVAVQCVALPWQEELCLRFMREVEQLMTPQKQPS
Experiment: Stability assessed as rat FAAH-mediated compound hydrolysis by LC-MS/MS analysis
Assay type: ADME
Details: rat FAAH (fatty-acid amide hydrolase 1), read-out: Stability
Readout Name: half-life (min)
Give the value in min but do not write min after it.

Which measured half-life value corresponds to CCCCC/C=C\C/C=C\C/C=C\[C@H](C)/C=C\CCCC(=O)N[C@H](C)CO ?
30

---

Biological target: FAAH (fatty-acid amide hydrolase 1) (Rattus norvegicus, UniProt P97612)
Test: Stability assessed as half life for rat FAAH-mediated compound hydrolysis by LC-MS/MS analysis
Assay type: ADME
Conditions: rat FAAH (fatty-acid amide hydrolase 1)
Readout Name: half-life (min)
# unit: min | format: bare number

I would be grateful if you could share the reported half-life for CCCCC/C=C\C/C=C\C/C=C\C/C=C\CCCC(=O)NCCO [ANANDAMIDE] .
12.1

---

Collected half-life values appear next to each entry.
Target: FAAH (fatty-acid amide hydrolase 1) (Homo sapiens, UniProt O00519)
Sequence (O00519 whole entry): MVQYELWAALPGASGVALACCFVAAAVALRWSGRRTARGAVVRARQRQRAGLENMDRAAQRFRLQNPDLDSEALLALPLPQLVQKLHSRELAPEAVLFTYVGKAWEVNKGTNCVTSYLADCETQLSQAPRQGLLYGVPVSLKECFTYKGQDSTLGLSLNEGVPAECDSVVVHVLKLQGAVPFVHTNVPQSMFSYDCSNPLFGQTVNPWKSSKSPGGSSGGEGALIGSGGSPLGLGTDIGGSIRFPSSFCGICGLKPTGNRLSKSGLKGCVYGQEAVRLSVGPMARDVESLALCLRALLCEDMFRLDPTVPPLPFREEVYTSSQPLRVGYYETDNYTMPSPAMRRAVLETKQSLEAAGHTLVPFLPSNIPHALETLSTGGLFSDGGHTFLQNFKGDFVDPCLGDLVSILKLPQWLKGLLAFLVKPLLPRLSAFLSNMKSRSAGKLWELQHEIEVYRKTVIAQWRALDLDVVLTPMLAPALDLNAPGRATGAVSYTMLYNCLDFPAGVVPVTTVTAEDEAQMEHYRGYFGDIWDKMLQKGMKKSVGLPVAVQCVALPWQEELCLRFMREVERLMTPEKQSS
Experiment: Stability assessed as half life for human FAAH-mediated compound hydrolysis by LC-MS/MS analysis
Assay type: ADME
Details: human FAAH (fatty-acid amide hydrolase 1)
Hi! Could you send only the number? It should be in min, unit omitted.

[[record]]
molecule = "CCCCC/C=C\\[C@H](C)/C=C\\C/C=C\\C/C=C\\CCCC(=O)NC1CC1"
measured_value = 25.2

[[record]]
molecule = "CCCCC/C=C\\[C@H](C)/C=C\\C/C=C\\C/C=C\\CCCC(=O)NCCO"
measured_value = 13.5


Please examine the following record next.
Which measured half-life belongs to CCCCC/C=C\C/C=C\C/C=C\C/C=C\CCCC(=O)NCCO [ANANDAMIDE] , tested on FAAH (fatty-acid amide hydrolase 1) (Homo sapiens, UniProt O00519)?
13.2

---

Molecular target: Cannabinoid receptor 1 (Rattus norvegicus, UniProt P20272)
Sequence (P20272 whole entry): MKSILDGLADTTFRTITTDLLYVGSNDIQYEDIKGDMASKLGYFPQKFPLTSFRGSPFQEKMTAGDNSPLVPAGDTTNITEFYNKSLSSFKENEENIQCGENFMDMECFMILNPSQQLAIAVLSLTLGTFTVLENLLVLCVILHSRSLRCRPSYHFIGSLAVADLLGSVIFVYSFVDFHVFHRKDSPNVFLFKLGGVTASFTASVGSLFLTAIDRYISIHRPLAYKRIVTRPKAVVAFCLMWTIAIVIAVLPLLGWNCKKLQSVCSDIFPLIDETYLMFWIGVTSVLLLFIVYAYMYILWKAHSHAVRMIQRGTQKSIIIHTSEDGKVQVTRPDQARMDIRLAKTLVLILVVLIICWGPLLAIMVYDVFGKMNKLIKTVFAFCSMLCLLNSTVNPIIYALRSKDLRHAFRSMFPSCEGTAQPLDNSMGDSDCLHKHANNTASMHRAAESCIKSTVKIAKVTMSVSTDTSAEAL
Test: Displacement of [3H]CP-55,940 from CB1 receptor in rat brain membranes in absence of FAAH inhibitor PMSF by radioligand binding assay
Format: cell membranes, Membrane
Readout Name: pKi
Formally, pKi is defined as -log10 of the concentration c, with c in mol/L.

Below are worked cases with known answers.
[[record]]
compound_string = "C[C@H](/C=C\\C/C=C\\C/C=C\\CCCC(=O)N[C@H](C)CO)/C=C\\CCCOc1ccccc1"
readout_name = "pKi"
measured_value = 7.19

[[record]]
compound_string = "CCCCC/C=C\\[C@H](C)/C=C\\C/C=C\\C/C=C\\CCCC(=O)NC1CCC1"
readout_name = "pKi"
measured_value = 7.75


Could you tell me which pKi is on file for CCCCC/C=C\[C@H](C)/C=C\C/C=C\C/C=C\CCCC(=O)N[C@H](C)CO ?
8.11

For the molecule shown here, CCCCC/C=C\C/C=C\C/C=C\[C@H](C)/C=C\CCCC(=O)N[C@H](C)CO , give the reported pKi.
8.34

Quick check: pKi of CCCCC/C=C\C/C=C\C/C=C\[C@@H](C)/C=C\CCCC(=O)N[C@H](C)CO ?
7.53

---

Target: Cannabinoid receptor 2 (Homo sapiens)
Sequence (P34972 whole entry): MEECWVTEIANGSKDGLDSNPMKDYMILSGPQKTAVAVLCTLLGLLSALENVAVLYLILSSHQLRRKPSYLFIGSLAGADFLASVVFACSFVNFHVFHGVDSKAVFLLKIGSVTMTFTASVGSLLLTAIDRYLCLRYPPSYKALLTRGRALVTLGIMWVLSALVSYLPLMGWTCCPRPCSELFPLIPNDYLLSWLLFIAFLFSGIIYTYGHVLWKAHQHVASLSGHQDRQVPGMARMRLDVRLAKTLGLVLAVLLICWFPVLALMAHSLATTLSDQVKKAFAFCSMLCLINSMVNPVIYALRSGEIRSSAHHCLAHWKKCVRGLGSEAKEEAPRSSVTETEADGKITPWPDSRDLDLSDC
Test: Displacement of [3H]CP-55,940 from human CB2 receptor expressed in HEK293 cell membranes in absence of FAAH inhibitor PMSF by radioligand binding assay
// boundary case: Ki equal to 20 nM maps to rule not met; strictly smaller maps to rule met

[[record]]
compound_string = "CCCCC/C=C\\C/C=C\\C/C=C\\[C@@H](C)/C=C\\CCCC(=O)N[C@H](C)CO"
class_label = "rule not met"


Dear reviewer, please state whether CCCCC/C=C\C/C=C\C/C=C\[C@H](C)/C=C\CCCC(=O)NCCO has Ki strictly beneath 20 nM.
rule not met

Below 20 nM on Ki? Entry CCCCC/C=C\[C@H](C)/C=C\C/C=C\C/C=C\CCCC(=O)NCCO
rule not met

---

Target: Prostaglandin G/H synthase 2 (Mus musculus)
Sequence (Q05769 whole entry): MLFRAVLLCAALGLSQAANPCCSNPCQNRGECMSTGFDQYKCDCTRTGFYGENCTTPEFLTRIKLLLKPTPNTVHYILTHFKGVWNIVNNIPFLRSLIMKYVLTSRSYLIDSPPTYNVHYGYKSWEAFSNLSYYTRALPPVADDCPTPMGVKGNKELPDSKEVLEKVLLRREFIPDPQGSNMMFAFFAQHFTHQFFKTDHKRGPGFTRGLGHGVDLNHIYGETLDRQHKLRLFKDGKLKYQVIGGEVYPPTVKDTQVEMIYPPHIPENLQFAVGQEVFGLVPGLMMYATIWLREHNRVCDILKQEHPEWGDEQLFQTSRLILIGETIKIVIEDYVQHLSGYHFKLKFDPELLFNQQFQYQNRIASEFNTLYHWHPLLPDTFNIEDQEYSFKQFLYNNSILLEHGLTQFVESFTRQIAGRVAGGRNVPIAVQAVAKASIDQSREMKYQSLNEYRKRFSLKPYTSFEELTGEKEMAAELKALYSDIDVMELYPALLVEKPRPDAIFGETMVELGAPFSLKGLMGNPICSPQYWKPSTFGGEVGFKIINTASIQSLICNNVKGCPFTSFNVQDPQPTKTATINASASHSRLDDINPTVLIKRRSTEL
Assay: Stability assessed as mouse COX2-mediated compound oxidation by measuring oxygen consumption by polarographic assay
Type: ADME
Readout Name: Stability

[[record]]
compound_string = "CCCCC/C=C\\[C@H](C)/C=C\\C/C=C\\C/C=C\\CCCC(=O)NC1CC1"
measured_value = "Stable"

[[record]]
compound_string = "CCCCC/C=C\\C/C=C\\C/C=C\\[C@@H](C)/C=C\\CCCC(=O)NCCO"
measured_value = "Stable"

[[record]]
compound_string = "CCCCC/C=C\\[C@H](C)/C=C\\C/C=C\\C/C=C\\CCCC(=O)N[C@H](C)CO"
measured_value = "Stable"


---

Reported values of pKi for individual entries
Molecular target: Cannabinoid receptor 1 (Rattus norvegicus, UniProt P20272)
Test: Displacement of [3H]CP-55,940 from CB1 receptor in rat brain membranes in presence of FAAH inhibitor PMSF by radioligand binding assay
Format: cell membranes, Membrane
On this scale, pKi is minus log10 of a concentration expressed in M (mol/L).

Worked examples follow.
[[record]]
compound_string = "CCCCC/C=C\\C/C=C\\C/C=C\\[C@H](C)/C=C\\CCCC(=O)NCCO"
measured_value = 8.77

[[record]]
compound_string = "C[C@H](/C=C\\C/C=C\\C/C=C\\CCCC(=O)NC1CC1)/C=C\\CCCCCN=[N+]=[N-]"
measured_value = 8.20

[[record]]
compound_string = "CCCCC/C=C\\[C@H](C)/C=C\\C/C=C\\C/C=C\\CCCC(=O)N[C@H](C)CO"
measured_value = 8.05

[[record]]
compound_string = "CCCCC/C=C\\C/C=C\\C/C=C\\[C@@H](C)/C=C\\CCCC(=O)NCCO"
measured_value = 6.28


Continue with the compound presented below.
If you can, please state the reported pKi value of CCCCC/C=C\[C@H](C)/C=C\C/C=C\C/C=C\CCCC(=O)NC1CCC1 .
7.64

---

Form field: Emax (one value per entry).
Molecular target: Cannabinoid receptor 1 (Rattus norvegicus)
Experiment: Agonist activity at rat CB1 receptor expressed in HEK293 cells assessed as inhibition of forskolin-induced cAMP accumulation incubated for 30 mins relative to 500 nM CP-55,940
Assay type: functional, cell-based

[[record]]
compound = "CCCCC/C=C\\[C@H](C)/C=C\\C/C=C\\C/C=C\\CCCC(=O)NC1CC1"
measured_value = "88%"

[[record]]
compound = "CCCCC/C=C\\C/C=C\\C/C=C\\C/C=C\\CCCC(=O)NCCO [ANANDAMIDE]"
measured_value = "61%"

[[record]]
compound = "CCCCC/C=C\\[C@H](C)/C=C\\C/C=C\\C/C=C\\CCCC(=O)NC1CCC1"
measured_value = "92%"


Data request, read-out Emax, for CCCCC/C=C\C/C=C\C/C=C\[C@H](C)/C=C\CCCC(=O)NCCO
100%

Form field: reported Emax of C[C@H](/C=C\C/C=C\C/C=C\CCCC(=O)NC1CC1)/C=C\CCCCCN=[N+]=[N-]
85%

---

Target: Cannabinoid receptor 2 (Homo sapiens)
Test: Displacement of [3H]CP-55,940 from human CB2 receptor expressed in HEK293 cell membranes in absence of FAAH inhibitor PMSF by radioligand binding assay
List of Ki values.
Write down the numeric answer in nM and omit the unit.

[[record]]
compound_string = "CCCCC/C=C\\[C@H](C)/C=C\\C/C=C\\C/C=C\\CCCC(=O)NC1CCCC1"
measured_value = 139

[[record]]
compound_string = "C#CCNC(=O)CCC/C=C\\C/C=C\\C/C=C\\[C@@H](C)/C=C\\CCCCC"
measured_value = 11.2

[[record]]
compound_string = "C[C@H](/C=C\\C/C=C\\C/C=C\\CCCC(=O)NC1CC1)/C=C\\CCCCCN=C=S"
measured_value = 22.1

[[record]]
compound_string = "CCCCC/C=C\\[C@H](C)/C=C\\C/C=C\\C/C=C\\CCCC(=O)NC1CCC1"
measured_value = 6.8


Reported Ki for CCCCC/C=C\C/C=C\C/C=C\[C@@H](C)/C=C\CCCC(=O)NCCO : what is it?
188

Dear colleague, I am looking for the recorded Ki of the following compound: CCCCC/C=C\[C@H](C)/C=C\C/C=C\C/C=C\CCCC(=O)NCCCl
10.4

Looking for the measured Ki of CCCCC/C=C\[C@H](C)/C=C\C/C=C\C/C=C\CCCC(=O)NC1CC1 , can you help?
4.3

---

Target: Cannabinoid receptor 1 (Rattus norvegicus, UniProt P20272)
Experiment: Displacement of [3H]CP-55,940 from CB1 receptor in rat brain membranes in presence of FAAH inhibitor PMSF by radioligand binding assay
Type: cell membranes, Membrane
Readout Name: Ki

Consider the reported Ki for these compounds:
[[record]]
compound_string = "CCCCC/C=C\\C/C=C\\[C@H](C)/C=C\\C/C=C\\CCCC(=O)NCCO"
tested_target = "Cannabinoid receptor 1 (Rattus norvegicus, UniProt P20272)"
measured_value = "> 1 µM"

[[record]]
compound_string = "CCCCC/C=C\\C/C=C\\[C@@H](C)/C=C\\C/C=C\\CCCC(=O)NCCO"
tested_target = "Cannabinoid receptor 1 (Rattus norvegicus, UniProt P20272)"
measured_value = "> 1 µM"


Okay, next one:
What value of Ki has been reported for the following compound? CCCCC/C=C\[C@@H](C)/C=C\C/C=C\C/C=C\CCCC(=O)NCCO
> 1 µM
